Property: koff; scope: individual binders
- MEASURED TARGET: T1, hPD-1 mIg fusion protein (human; mouse, UniProt Q15116 25-170)
- T1 construct: extracellular domain; not shown: CH2-CH3 domain of mouse IgG2a heavy chain (plasmid pmIgG)
- T1 sequence (Q15116 25-170): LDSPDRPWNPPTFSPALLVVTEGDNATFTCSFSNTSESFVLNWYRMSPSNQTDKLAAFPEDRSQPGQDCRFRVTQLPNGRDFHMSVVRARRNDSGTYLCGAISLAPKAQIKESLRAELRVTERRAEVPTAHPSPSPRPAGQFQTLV
- PROCEDURE TEXT: SPR Biacore T100, hPD-1mIg immobilised by amine coupling, antibody as analyte
- Method: Binding affinity and kinetics determination of the humanized antibodies: The binding affinity and kinetics of the humanized PD-1 mAbs interact with hPD-1 protein was assessed with Biacore T100 (GE Healthcare Life Sciences). […] Nine different concentrations were tested for each sample. Detailed binding kinetic parameters (association rate, Ka, dissociation rate, Kd, and affinity constant, KD) can be determined by full kinetic analysis.
API: value field is a number in s⁻¹; no unit string.

- BINDER: "Variant 4 (antibody, V domains shown, Humanized; VH variant b, VK variant a; Constant regions not spelled out; chimeric parent has human IgG4-S228P and human kappa; also called mutant combination 4) VH: EVQLVESGGGLVQPGGSLRLSCAASGFTFSSYTMSWVRQAPGKGLEWVSYISHGGGDTYYPDSVKGRFTISRDNSKNTLYLQMNSLRAEDTAVYYCARHSGYERGYYYVMDYWGQGTLVTVSS VL: DIVMTQSPDSLAVSLGERATINCKSSESVDYYGFSFLNWFQQKPGQPPKLLIYAASNRESGVPDRFSGSGSGTDFTLTISSLQAEDVAVYYCQQSKEVPWTFGQGTKLEIKR"
  OBSERVED RESULT: "6.29e-05"

Entry Variant 9 (antibody, V domains shown, Humanized; VH variant c, VK variant c; Constant regions not spelled out; also called mutant combination 9) VH: EVKLLESGGGLVQPGGSLRLSCAASGFTFSSYTMSWVRQAPGKGLEWVSYISHGGGDTYYPDSVKGRFTISRDNSKNTLYLQMNSLRAEDTAVYYCARHSGYERGYYYVMDYWGKGTTVTVSS VL: DIQLTQSPDSLSVSLGERATINCKASESVDYYGFSFLNWFQQKPGQPPKLLIYAASNRQSGVPDRFSGSGSGTDFTLTISSLQAEDVAVYFCQQSKEVPWTFGQGTKLEIK has what koff? 3.2e-05
